Target: T1, native human CD30L expressed on Ramos cells (human, UniProt P32971 1-234)
T1 sequence: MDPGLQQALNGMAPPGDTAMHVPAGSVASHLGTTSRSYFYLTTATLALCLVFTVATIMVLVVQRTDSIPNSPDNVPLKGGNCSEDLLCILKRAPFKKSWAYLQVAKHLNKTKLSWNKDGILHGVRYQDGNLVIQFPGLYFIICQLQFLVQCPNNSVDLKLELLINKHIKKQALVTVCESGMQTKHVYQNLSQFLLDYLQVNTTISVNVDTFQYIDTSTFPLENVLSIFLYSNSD
Assay: cell-based or functional assay
measured attribute: IC50, inhibition of IL-8 release (K299/Ramos dual cell assay) (nM)
Give the value in nM but do not write nM after it.

// known answers, use as guide
INSERT INTO measurements (binder, obs_value) VALUES
  ('Antibody A1 (antibody, V domains shown, also called mAb A1; Antibody A1 IgG2) VH: QVQLQESGPGLVKPSETLSLTCTVSGGSISSYIWSWIRQPAGKGLEWIGRIYASGNTNYNPSLKSRVTISVDTSKNQFSLKLSSMTAADTAVYYCARDYRVAGTYYYYYGLDVWGQGTTVTVSS VL: QSALTQPASVSGSPGQSITISCTGTSSDVGVYDYVSWYQQHPGKAPKLMIYEVSNRPSGVSNRFSGSKSGNTASLTISGLQTEDEADYYCSSYTSRSTWVFGGGTKLTVL', 0.033),
  ('Antibody A1 IgG1 (antibody, V domains shown) VH: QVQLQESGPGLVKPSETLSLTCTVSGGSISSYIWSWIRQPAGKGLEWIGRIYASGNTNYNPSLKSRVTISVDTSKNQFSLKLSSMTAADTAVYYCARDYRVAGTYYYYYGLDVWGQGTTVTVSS VL: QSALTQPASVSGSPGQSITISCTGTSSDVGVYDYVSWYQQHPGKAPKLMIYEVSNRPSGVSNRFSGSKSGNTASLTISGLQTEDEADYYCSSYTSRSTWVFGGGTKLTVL', 0.032);

Reported IC50, inhibition of IL-8 release (K299/Ramos dual cell assay) for Antibody F (antibody, V domains shown, also called mAb F) VH: QVQLQESGPGLVKPSETLSLTCTVSGGSISSYYWSWIRQPAGKGLEWIGRIFASGSTNYNPSLRSRVTMSRDTSKNQFSLKLSSVTAADTAVYYCAKERVGVQDYYHYSGMDVWGQGTTVTVSS VL: QSALTQPASVSGSPGQSITISCTGTSSDVGLYNYVSWYQQQPGKAPKLMIYEVSKRPSGVSNRFSGSTSGNTASLTISGLQADDEADYSCSSYTSSSTWVFGGGTKLTVL : what is it? 0.06

Reported IC50, inhibition of IL-8 release (K299/Ramos dual cell assay) for Antibody A (antibody, V domains shown, Human antibody (XenoMouse); also called mAb A; anti-hCD30L A) VH: QVQLQESGPGLVKPSETLSLTCTVSGGSISSYIWSWIRQPAGKGLEWIGRIYASGNTNYNPSLKSRVTMSVDTSKNQFSLKLSSMTAADTAVYYCARDYRVAGTYYYYYGLDVWGQGTTVTVSS VL: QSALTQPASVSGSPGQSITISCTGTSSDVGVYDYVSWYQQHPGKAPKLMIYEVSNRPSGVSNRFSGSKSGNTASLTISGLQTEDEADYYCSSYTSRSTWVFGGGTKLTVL : what is it? 0.028

Reported IC50, inhibition of IL-8 release (K299/Ramos dual cell assay) for Antibody B (antibody, V domains shown, also called mAb B) VH: QVQLQESGPGLVKPSETLSLTCTVSGGSISSYYWTWIRQPAGKGLEWIGRIYTSGITNYNPSLKSRVTMSVDTSKNQFSLKLSSVTAADTAVYYCARERVVGASRYYYYGVDVWGQGTTVTVSS VL: QSALTQPASVSGSPGQSITISCTGTSSDVGLYNYVSWYQQHPDKAPKLMIFEVNNRPSGVSNRFSGSNSGNTASLTISGLQAEDEADYYCSSYTSSSTWVFGGGTKLTVL : what is it? 0.072

Reported IC50, inhibition of IL-8 release (K299/Ramos dual cell assay) for Antibody E (antibody, V domains shown, also called mAb E) VH: QVQLQESGPRLVKPSETLSLTCTVSGGSITNNYWSWIRQPAGKGLEWIGRVYSSGLTNYKPSLKSRVTMSVDTSKNQFSLRLNSVTAADTAVYYCARERATVTTRYHYDGMDVWGQGTSVTVSS VL: QSALTQPASVSGSPGQSITISCTGSSSDIGTYNYVSWYQQYPGKAPELMIYEVNNRPSGVSDRFSGSTSGNTASLTISGLQANDEADYYCSSYSSSSTWVFGGGTKLTVL : what is it? 0.045
